Cited source for all entries: patent US20100113465A1

Consider the following compounds; for each one, report its kinact/KI.
- study-target: human FAAH (Homo sapiens, UniProt O00519)
- Construct: made in house; host or cells: E. coli
- Sequence (O00519 1-579): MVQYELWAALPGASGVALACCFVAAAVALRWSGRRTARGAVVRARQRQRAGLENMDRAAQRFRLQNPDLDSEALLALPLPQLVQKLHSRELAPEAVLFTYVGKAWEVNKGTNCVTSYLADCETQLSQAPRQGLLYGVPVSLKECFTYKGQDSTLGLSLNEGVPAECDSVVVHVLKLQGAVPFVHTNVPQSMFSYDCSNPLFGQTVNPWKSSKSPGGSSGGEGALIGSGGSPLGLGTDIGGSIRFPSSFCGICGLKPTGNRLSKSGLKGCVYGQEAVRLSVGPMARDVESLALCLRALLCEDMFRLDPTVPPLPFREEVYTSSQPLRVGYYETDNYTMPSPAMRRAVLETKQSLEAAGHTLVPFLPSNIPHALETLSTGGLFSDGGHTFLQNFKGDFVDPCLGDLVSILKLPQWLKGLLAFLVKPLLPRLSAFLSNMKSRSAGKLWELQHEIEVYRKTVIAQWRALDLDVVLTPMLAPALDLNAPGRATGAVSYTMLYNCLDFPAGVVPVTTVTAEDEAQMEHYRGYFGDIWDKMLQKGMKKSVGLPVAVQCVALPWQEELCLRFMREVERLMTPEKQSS
- assay-procedure: FAAH assay, human FAAH enzyme inhibition (kinact/Ki)
- Type: biochemical
- experimental-parameters: oleamide substrate 50 μM, 30° C., read-out: hFAAH kinact/Ki
Numeric only. Scale: M⁻¹ s⁻¹

What value of measured kinact/KI is listed for Cn1nnnc1NC(=O)N1CCC2(CC1)CC(c1cccc(Cl)c1F)C2 ?
14100

Name the recorded kinact/KI for Cc1noc(NC(=O)N2CCC3(CC2)CC(c2cccc(OCCOc4ccccc4Cl)c2)C3)c1C .
2940

What kinact/KI value was documented for this compound, Cc1noc(NC(=O)N2CCC3(CC2)CC(c2noc(-c4ccc(OC(F)(F)F)cc4)n2)C3)c1C ?
3460

Find the recorded kinact/KI belonging to Cn1nnnc1NC(=O)N1CCC2(CC1)CC(F)(c1cccc(OC(F)(F)F)c1)C2 and report it.
13900

For Cc1noc(NC(=O)N2CCC3(CC2)CC(F)(c2cccc(OC(F)(F)F)c2)C3)c1C , what is its reported kinact/KI?
2820

Would you kindly share the measured kinact/KI for Cc1cc(F)cc(C2CC3(CCN(C(=O)Nc4onc(C)c4C)CC3)C2)c1 ?
2640

Quick one: kinact/KI for Cc1noc(NC(=O)N2CCC3(CC2)CC(c2ccc(Cl)c(Cl)c2)C3)c1C ?
4550
